Reference for the values: patent US20220143041A1

System: Male BalbC/J mice
Assay: Forced swim test (FST), immobility time
Format: in vivo
Conditions: 6-min test; IP 30 min prior; DCS 300 mg/kg, mirtazapine or isomer 5 mg/kg, alone or combined
MEASURE_NAME: Immobility time in the rodent forced swim test, Mean (s)
Field format: number, assumed s, no unit text.

Query: I'd like to know its Immobility time in the rodent forced swim test, Mean. The compound in question is CN1CCN2c3ncccc3Cc3ccccc3C2C1 (racemic) [mirtazapine]
Response: 92.30

Query: Recorded Immobility time in the rodent forced swim test, Mean for CN1CCN2c3ncccc3Cc3ccccc3[C@H]2C1 [S-mirtazapine, S(+)mirtazapine] , please?
Response: 117.60

Query: Which Immobility time in the rodent forced swim test, Mean value is on record for N[C@@H]1CON=C1O [DCS, 3-Isoxazolidinone, 4-amino-, (4R)-(9CI)] ?
Response: 42.08

Query: # lookup: Immobility time in the rodent forced swim test, Mean of CN1CCN2c3ncccc3Cc3ccccc3[C@@H]2C1 [R-mirtazapine, R(−)mirtazapine]
Response: 68.40
